- assayed_target: human recombinant Btk (Homo sapiens)
- Sequence (Q06187 whole entry): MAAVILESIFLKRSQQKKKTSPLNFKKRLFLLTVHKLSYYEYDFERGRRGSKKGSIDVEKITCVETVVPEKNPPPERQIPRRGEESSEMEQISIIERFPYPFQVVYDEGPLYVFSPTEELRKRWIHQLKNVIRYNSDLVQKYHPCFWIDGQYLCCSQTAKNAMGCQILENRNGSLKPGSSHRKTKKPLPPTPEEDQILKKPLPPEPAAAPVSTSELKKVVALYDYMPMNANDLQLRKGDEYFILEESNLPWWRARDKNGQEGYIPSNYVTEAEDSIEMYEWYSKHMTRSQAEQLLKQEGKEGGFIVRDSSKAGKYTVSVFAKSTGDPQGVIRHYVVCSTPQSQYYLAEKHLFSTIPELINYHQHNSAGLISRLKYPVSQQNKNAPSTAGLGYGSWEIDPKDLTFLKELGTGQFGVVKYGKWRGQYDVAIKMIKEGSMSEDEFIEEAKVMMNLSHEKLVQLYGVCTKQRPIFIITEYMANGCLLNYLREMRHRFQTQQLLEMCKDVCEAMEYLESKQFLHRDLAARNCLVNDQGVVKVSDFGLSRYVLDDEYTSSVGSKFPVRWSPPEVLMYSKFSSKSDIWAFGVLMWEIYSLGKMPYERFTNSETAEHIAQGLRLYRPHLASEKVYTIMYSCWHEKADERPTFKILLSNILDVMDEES
- method: Human Recombinant Btk Enzyme Assay
- test_conditions: human recombinant Btk 1 nM, ATP 20 μM, 60 min at room temperature; read-out: IC50 for Inhibition of Btk
metric: IC50 (nM)

Worked cases, IC50 given:
[
  {
    "compound": "Cc1c(NC(=O)c2ccc(F)cc2)cccc1-c1ccc(C(N)=O)c2[nH]c3cc(C(N)=O)ccc3c12",
    "unit_tag": "nM",
    "quantitative_result": 17
  },
  {
    "compound": "Cc1c(-c2ccc(C(N)=O)c3[nH]c4cc(NCC(O)CO)ccc4c23)cccc1N1Cc2ccccc2C1=O (stereo not shown)",
    "unit_tag": "nM",
    "quantitative_result": 2.2
  }
]

[a] CN1CCN(C(=O)c2ccc3c(c2)[nH]c2c(C(N)=O)ccc(-c4cccc5[nH]c(C(=O)N6CCCC6)cc45)c23)CC1
[b] Cc1c(-c2ccc(C(N)=O)c3[nH]c4cc(NC(=O)OCc5ccccc5)ccc4c23)cccc1N1Cc2cc(C(C)(C)C)ccc2C1=O
Which record shows the lower IC50: the first, a , or the second, b ? Choose, then provide that item's label.
a

[P] CN1CCN(C(=O)c2ccc3c(c2)[nH]c2c(C(N)=O)ccc(-c4c[nH]c5cc(-c6ccc(F)cc6)ccc45)c23)CC1
[Q] Cc1c(Nc2ncnc3ccc(F)cc23)cccc1-c1ccc(C(N)=O)c2[nH]c3cc(N4CCCC4=O)ccc3c12
Between these two entries, P and Q , state which has the higher IC50. Choose, then provide that item's label.
P
(P: 940 nM, Q: 15 nM)
